src = PubChem BioAssay (Tox21)

# Measurement Protocol: qHTS assay to identify small molecule antagonists of the estrogen receptor alpha (ER-alpha) signaling pathway using the BG1 cell line in the presence of 0.1 nM 17-beta-estradiol - cell viability counter screen (AID 1259241); further: nearly all actives have a fitted effect of over 40% in size
# Condition Details: VM7Luc4E2 (BG1) viability, CellTiter-Fluor protease, 22 h, 0.1 nM estradiol agonist added; series mostly up to 92.4 µM
Inconclusive results are not listed. Activity calls are given as the source filed them. The call rests on the fitted dose curve; in most records, active means well fitted cell-killing curve with a large enough effect in the repeat runs; inconclusive means weak or mixed curves, or effect the other way; inactive means flat fitted curve, though single readings scatter.
Outcomes: active, inactive

> print(dat)
                                    compound     label
 1  Cc1ccc(N/N=c2\c(=O)cc/c(=N\Nc3ccc(S(=O)(=O)O)cc3)c2=O)c(C)c1    active
 2            O=C(O)c1cc(-c2ccc(F)cc2F)ccc1O  inactive
 3              NC(=O)c1cccc([N+](=O)[O-])c1  inactive
 4  CCCC(=O)OCOC(=O)C1=C(C)NC(C)=C(C(=O)OC)C1c1cccc(Cl)c1Cl (stereo unspecified)  inactive
 5  COc1c(C)c2c(c(O)c1C/C=C(\C)CCC(=O)OCCN1CCOCC1)C(=O)OC2  inactive
 6                                  COC(C)=O  inactive
 7        O=C(O)Cc1ccc2c(c1)C(=O)c1ccccc1CO2  inactive
 8                                     ClCCl  inactive
 9  Cc1cc(-c2ccc(N=Nc3cc(S(=O)(=O)O)c4ccccc4c3N)c(C)c2)ccc1N=Nc1cc(S(=O)(=O)O)c2ccccc2c1N  inactive
10   CC[N+](CC)(CC)CCOC(=O)C(C1CCCC1)C1CCCC1  inactive
11  O=c1[nH]c2ccccc2n1CCCN1CCN(C(c2ccccc2)c2ccccc2)CC1  inactive
